Reference source for all entries: patent US7425640B2

# assay.system: HCV RNA-dependent RNA polymerase NS5B (Δ21) (Hepatitis C virus genotype 1b, UniProt P26663)
# Sequence (P26663 2420-2989, stated change not applied): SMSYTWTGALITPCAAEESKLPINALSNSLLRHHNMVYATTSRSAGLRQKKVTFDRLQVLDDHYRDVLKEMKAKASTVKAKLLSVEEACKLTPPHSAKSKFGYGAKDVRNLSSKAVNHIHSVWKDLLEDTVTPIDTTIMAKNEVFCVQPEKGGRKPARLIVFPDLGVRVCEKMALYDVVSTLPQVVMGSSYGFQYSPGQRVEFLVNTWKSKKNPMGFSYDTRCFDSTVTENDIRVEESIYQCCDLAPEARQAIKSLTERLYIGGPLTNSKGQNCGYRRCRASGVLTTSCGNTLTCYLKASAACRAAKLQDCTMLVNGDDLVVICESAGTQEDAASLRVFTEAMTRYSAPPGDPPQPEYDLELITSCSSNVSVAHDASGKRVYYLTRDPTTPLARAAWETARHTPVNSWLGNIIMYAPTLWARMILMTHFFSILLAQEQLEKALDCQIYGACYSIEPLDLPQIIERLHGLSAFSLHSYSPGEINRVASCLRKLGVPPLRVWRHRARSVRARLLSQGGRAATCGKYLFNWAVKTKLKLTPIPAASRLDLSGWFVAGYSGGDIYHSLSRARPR
# assay.notes: Assay for HCV RNA-dependent RNA polymerase activity (SPA, [3H]-GTP incorporation)
# Format: biochemical
# experimental.parameters: Δ21 Activity (IC50 μM), 50 nM NS5B (Δ21), class symbols
Give IC50 for every item shown.

>>> value_measured("N#CNC(=O)c1cc(C(=O)N[C@H]2CCCC[C@@H]2OCc2ccccc2)n(CC(=O)N[C@H]2CCCC[C@@H]2OCc2ccccc2)n1")
"< 0.05 µM"
>>> value_measured("O=C(Cn1nc(C(=O)O)cc1C(=O)N[C@H]1CCCC[C@@H]1OCc1ccccc1)NC1CCCC[C@@H]1N1CCOCC1 (stereo partly shown)")
"> 1 µM"
>>> value_measured("COc1ccc(NC(=O)c2cc(C(=O)Nc3ccccc3OCc3ccccc3)n(CC(=O)N[C@H]3CCCC[C@@H]3OCc3ccccc3)n2)cc1")
"0.05 to 0.1 µM"
>>> value_measured("C[C@H](NC(=O)c1cc(C(=O)N[C@H]2CCCC[C@@H]2OCc2ccccc2)n(CC(=O)N[C@H]2CCCC[C@@H]2OCc2ccccc2)n1)c1cccc2ccccc12")
"0.05 to 0.1 µM"
>>> value_measured("CC(O)(c1ccc(Cl)cc1)c1cc(C(=O)N[C@H]2CCCC[C@@H]2OCc2ccccc2)n(CC(=O)N[C@H]2CCCC[C@@H]2OCc2ccccc2)n1 (stereo partly shown)")
"> 1 µM"
>>> value_measured("O=C(Cn1nc(C(=O)O)cc1C(=O)Nc1cc(C(F)(F)F)ccc1OCc1ccccc1)N[C@H]1CCCC[C@@H]1OCc1ccccc1")
"< 0.05 µM"

Measured IC50, "Cc1ccc(OCc2ccccc2)c(NC(=O)c2cc(NS(=O)(=O)c3ccc(Cl)cc3)nn2CC(=O)N[C@H]2CCCC[C@@H]2OCc2ccccc2)c1" : 0.05 to 0.1 µM
